Biological target: SIRT1 (Homo sapiens, UniProt Q96EB6)
Sequence (Q96EB6 1-747): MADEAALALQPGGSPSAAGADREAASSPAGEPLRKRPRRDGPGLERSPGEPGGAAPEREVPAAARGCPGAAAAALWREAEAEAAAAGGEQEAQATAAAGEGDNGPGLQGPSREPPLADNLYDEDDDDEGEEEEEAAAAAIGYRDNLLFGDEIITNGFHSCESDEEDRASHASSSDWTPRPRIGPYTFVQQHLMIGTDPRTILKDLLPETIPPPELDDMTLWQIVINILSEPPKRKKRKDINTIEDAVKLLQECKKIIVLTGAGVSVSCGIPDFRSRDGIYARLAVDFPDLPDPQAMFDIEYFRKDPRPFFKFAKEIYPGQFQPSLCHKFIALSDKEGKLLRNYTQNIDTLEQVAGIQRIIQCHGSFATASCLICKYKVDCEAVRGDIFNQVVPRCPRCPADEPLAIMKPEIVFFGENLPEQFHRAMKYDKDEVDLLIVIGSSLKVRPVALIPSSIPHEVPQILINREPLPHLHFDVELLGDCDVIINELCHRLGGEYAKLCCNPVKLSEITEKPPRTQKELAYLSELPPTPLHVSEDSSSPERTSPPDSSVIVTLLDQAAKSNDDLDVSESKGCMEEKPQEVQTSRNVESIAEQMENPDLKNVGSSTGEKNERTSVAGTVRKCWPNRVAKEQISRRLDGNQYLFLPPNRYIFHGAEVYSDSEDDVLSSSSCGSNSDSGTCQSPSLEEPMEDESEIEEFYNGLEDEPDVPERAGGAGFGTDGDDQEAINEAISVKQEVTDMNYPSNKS
Experiment: SIRT1 deacetylation of Trp 5-mer peptide, OAADPr mass spec assay
Details: IC50 (μM) SIRT1, Trp 5-mer peptide and NAD at KM; mean of at least three determinations
experimental_endpoint: IC50 (µM)

NC(=O)c1cc2ncnc(N3CCC(CCNC(=O)c4cccs4)CC3)c2s1 [Compound 19] :: 0.006

1. CC(C)(C)OC(=O)c1ccc(C(=O)NCCC2CCN(c3ncnc4cc(C(N)=O)sc34)CC2)s1 [Compound 17]
2. CCNC(=O)c1cccc(C(=O)NCCC2CCN(c3ncnc4cc(C(N)=O)sc34)CC2)c1 [Compound 11a]
Lab note: check whether 1 or 2 shows the higher recorded IC50. Kindly give the label for the entry you pick.
2
(2: 0.014 µM, 1: 0.007 µM)

###

Target: SIRT2 (Homo sapiens)
Sequence (Q8IXJ6 1-389): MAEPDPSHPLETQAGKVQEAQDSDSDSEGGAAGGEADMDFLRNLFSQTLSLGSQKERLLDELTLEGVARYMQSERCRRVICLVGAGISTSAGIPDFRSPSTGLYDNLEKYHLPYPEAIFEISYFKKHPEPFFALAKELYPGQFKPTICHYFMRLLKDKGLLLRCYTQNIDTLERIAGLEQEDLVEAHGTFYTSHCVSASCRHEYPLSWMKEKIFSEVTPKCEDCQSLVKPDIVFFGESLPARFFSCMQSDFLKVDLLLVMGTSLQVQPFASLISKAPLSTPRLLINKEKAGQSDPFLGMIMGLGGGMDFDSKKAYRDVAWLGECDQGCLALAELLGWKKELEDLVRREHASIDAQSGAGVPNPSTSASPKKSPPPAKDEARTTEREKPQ
Assay: SIRT2 deacetylation of Trp 5-mer peptide, OAADPr mass spec assay
Format: biochemical
Parameters: His-SIRT2(1-389)
Settings: Trp 5-mer peptide; class symbols; read-out: Trp SIRT2_IC50
pIC50: −log10 of the molar value.
// pIC50 lookup, one value per entry

COC(=O)c1ccc(C(=O)NCCC2CCN(c3ncnc4cc(C(N)=O)sc34)CC2)s1 :: > 6.00
CC(C)(C)C(=O)N1CCC2(CCN(c3ncnc4cc(C(N)=O)sc34)CC2)C1 :: > 6.00
NC(=O)c1cc2ncnc(N3CCC(CCO)CC3)c2s1 :: > 6.00
NC(=O)c1cc2ncnc(N3CCC(CN4CCCC(C(F)(F)F)C4)CC3)c2s1 (stereo not drawn) :: > 6.00
CC1(C)COC(C2CCN(c3ncnc4cc(C(N)=O)sc34)CC2)OC1 :: 5.00 to 6.00

pIC50 reported for this molecule CS(=O)(=O)NCCC1CCN(c2ncnc3cc(C(N)=O)sc23)CC1 : > 6.00

pIC50 reported for this molecule NC(=O)c1cc2ncnc(N3CCC(CCO)CC3)c2o1 : > 6.00

pIC50 reported for this molecule CC(=O)NCCN1CCN(c2ncnc3cc(C(N)=O)sc23)CC1 : > 6.00

pIC50 reported for this molecule NC(=O)c1cc2ncnc(N3CCC(CO)CC3)c2s1 : > 6.00

pIC50 reported for this molecule CCNC(=O)c1cccc(C(=O)NCCN2CCN(c3ncnc4ccsc34)CC2)c1 : < 5.00

pIC50 reported for this molecule CCNC(=O)c1cccc(C(=O)NCCC2CCN(c3ncnc4cc(C(N)=O)sc34)CC2)c1 [Compound 11a] : > 6.00

pIC50 reported for this molecule CNC(=O)c1cc2ncnc(N3CCC(CCNC(=O)C(C)(C)C)CC3)c2s1 : 5.00 to 6.00

pIC50 reported for this molecule NC(=O)c1cc2ccnc(N3CCC(CCN4CCCC4)CC3)c2s1 : 5.00 to 6.00
